Test system: TG-180 tumour cells
Assay: Antitumour action on grafted TG-180 ascitic tumour
Settings: +IFN
Response field label takes true (1) when MST (mean survival time) is strictly below 40 days and false (0) in all other cases.

Item OC[C@H]1O[C@@H](O[C@H]2[C@H](O)[C@@H](O)C(O)O[C@@H]2CO)[C@H](O)[C@@H](O)[C@H]1O (stereo partly shown) [Lactose, lactose] : MST (mean survival time) beneath 40 days, strictly? false (0)

Item CCC(N)C(=O)O (stereo not drawn) [alphaaminobut., alpha aminobutyric acid] : MST (mean survival time) beneath 40 days, strictly? true (1)

Item O=C[C@H](O)[C@@H](O)[C@@H](O)[C@H](O)C(=O)[O-].[Na+] [Na galacturonate, sodium galacturonate] : MST (mean survival time) beneath 40 days, strictly? true (1)

Item NCCCC(=O)O [GABA, gamma aminobutyric acid] : MST (mean survival time) beneath 40 days, strictly? false (0)

Item CC(C)(N)C(=O)O [alphaaminoiso., alpha aminoisobutyric acid] : MST (mean survival time) beneath 40 days, strictly? true (1)
